I'd be grateful if you could share measured log P for these entries.
format: physicochemical; details: method [a]: HPLC/LC-MS on reversed phase at pH 2.7, 0.1% formic acid in water / acetonitrile, linear gradient 10% to 95% acetonitrile

**Query** Read off the recorded log P for CCn1cc(CNC(=O)C2(C)CC(c3ccc4ncc(-c5cccs5)cc4c3)=NO2)c(C)n1 (stereo not shown)
**Result** 2.63^[a]

**Query** Quickly give me recorded log P for C#Cc1cnc2ccc(C3=NOC(C)(C(=O)NCc4cc(Cl)cc(Cl)c4)C3)cc2c1 (stereo not shown)
**Result** 3.71^[a]

**Query** Return log P for the following molecule: C#Cc1cnc2ccc(C3=NOC(C)(C(=O)NC(C)C)C3)cc2c1 (stereo not shown)
**Result** 2.28^[a]

**Query** Could you please provide reported log P for C#Cc1cnc2ccc(C3=NOC(C)(C(=O)NCC4CCOc5ccccc54)C3)cc2c1 (stereo not shown) ? Thanks!
**Result** 3.11^[a]

====

Would you mind telling me the reported log P of each entry?
type: physicochemical; conditions: HPLC on reversed phase columns, method [a]: pH 2.7, 0.1% formic acid in water and acetonitrile, linear gradient 10% to 95% acetonitrile

**Query** Write down log P measured for item COC1(C(=O)NCCC2CC2)CC(c2ccc3ncc(Br)cc3c2)=NO1 (racemic)
**Result** 3.03[a]

**Query** Answer with the recorded log P of CC(C)c1cccc(CNC(=O)C2(C)CC(c3ccc4ncc(Br)cc4c3)=NO2)n1 (stereo not shown) only.
**Result** 2.33[a]

**Query** Using known records, supply log P for CCc1ccnc(CNC(=O)C2(C)CC(c3ccc4ncc(Br)cc4c3)=NO2)c1 (stereo not shown)
**Result** 1.82[a]

**Query** Provide measured log P value, entry: CC1(C(=O)NCc2cncc(Cl)n2)CC(c2ccc3ncc(Br)cc3c2)=NO1 (stereo not shown)
**Result** 2.71[a]

**Query** Output log P of C#Cc1cnc2ccc(C3=NOC(C)(C(=O)NCc4ccnc(OC(C)C)c4)C3)cc2c1 (stereo not shown)
**Result** 2.71[a]

**Query** Identify measured log P associated with C#Cc1cnc2ccc(C3=NOC(C)(C(=O)NCc4cncc(Cl)n4)C3)cc2c1 (stereo not shown)
**Result** 2.41[a]

**Query** Supply recorded log P for C#Cc1cnc2ccc(C3=NOC(C)(C(=O)NCc4cnc(OC)nc4)C3)cc2c1 (stereo not shown) here.
**Result** 2.01[a]

**Query** Look up and state reported log P for C#Cc1cnc2ccc(C3=NOC(C)(C(=O)NCc4ccnc(O)c4)C3)cc2c1 (stereo not shown)
**Result** 1.54[a]

**Query** Give the measured log P for CC(C)Oc1cc(CNC(=O)C2(C)CC(c3ccc4ncc(Br)cc4c3)=NO2)ccn1 (stereo not shown)
**Result** 3.09[a]

**Query** Tell us which log P value is on record for C#Cc1cnc2ccc(C3=NOC(C)(C(=O)NCc4cncc(F)c4)C3)cc2c1 (stereo not shown)
**Result** 2.13[a]

**Query** Give recorded log P. C#Cc1cnc2ccc(C3=NOC(C)(C(=O)NCCc4ccc(C(F)(F)F)cc4Cl)C3)cc2c1 (stereo not shown)
**Result** 3.76[a]

**Query** Assign log P to the following record: CC1(C(=O)NCc2cncc(C#N)c2)CC(c2ccc3ncc(Br)cc3c2)=NO1 (stereo not shown)
**Result** 2.35[a]

**Query** Fill in reported log P for this entry: CC1(C(=O)NCc2cnccn2)CC(c2ccc3ncc(Br)cc3c2)=NO1 (stereo not shown)
**Result** 2.10[a]

**Query** Provide only the value of recorded log P for C#CC1(C(=O)NCc2cn(CCC)nc2C)CC(c2ccc3ncc(Br)cc3c2)=NO1 (stereo not shown)
**Result** 2.78[a]

**Query** Look up and state reported log P for CCOc1ncccc1CNC(=O)C1(C)CC(c2ccc3ncc(Br)cc3c2)=NO1 (stereo not shown)
**Result** 3.21[a]

**Query** Fill in reported log P for this entry: C#Cc1cnc2ccc(C3=NOC(C)(C(=O)NC(C4CC4)C4CC4)C3)cc2c1 (stereo not shown)
**Result** 3.21[a]

**Query** Quick one: give measured log P for C/C(=N\O)NC(=O)C1(C)CC(c2ccc3ncc(Br)cc3c2)=NO1 (stereo not shown)
**Result** 2.04[a]

**Query** For the compound CC1(C(=O)NCC2CC(F)(F)C2)CC(c2ccc3ncc(Br)cc3c2)=NO1 (stereo not shown) , report log P.
**Result** 2.98[a]

**Query** Give the reported log P for this compound. CC1(C(=O)NCc2ccncc2F)CC(c2ccc3ncc(Br)cc3c2)=NO1 (stereo not shown)
**Result** 2.27[a]

**Query** Give log P for CC1(C(=O)NCc2cncc(F)c2)CC(c2ccc3ncc(Br)cc3c2)=NO1 (stereo not shown)
**Result** 2.37[a]

**Query** Using the record for C#Cc1cnc2ccc(C3=NOC(C)(C(=O)Nc4cnn(CC)c4)C3)cc2c1 (stereo not shown) , state its measured log P.
**Result** 2.17[a]

**Query** Provide only the value of recorded log P for C=CC1(C(=O)NC(C)C)CC(c2ccc3ncc(Br)cc3c2)=NO1 (stereo not shown)
**Result** 3.08[a]

**Query** Give the value of log P reported for the following: C#Cc1cnc2ccc(C3=NOC(C)(C(=O)NCc4ccnc(C(F)(F)F)c4)C3)cc2c1 (stereo not shown)
**Result** 2.64[a]

**Query** Quick one: give measured log P for CC(C)/C(=N\O)NC(=O)C1(C)CC(c2ccc3ncc(Br)cc3c2)=NO1 (stereo not shown)
**Result** 2.50[a]

**Query** Recall and state the measured log P for C#Cc1cnc2ccc(C3=NOC(C)(C(=O)NCc4cccnc4C#N)C3)cc2c1 (stereo not shown) .
**Result** 1.70[a]

**Query** Check the records and state log P for C#Cc1cnc2ccc(C3=NOC(C)(C(=O)NC(C)CN(C)C)C3)cc2c1 (stereo not shown)
**Result** 1.42[a]

**Query** Return log P for the following compound: CCC(C#N)NC(=O)C1(C)CC(c2ccc3ncc(Br)cc3c2)=NO1 (stereo not shown)
**Result** 2.75[a]

**Query** Give the reported log P for this compound. CCc1cccc(CNC(=O)C2(C)CC(c3ccc4ncc(Br)cc4c3)=NO2)n1 (stereo not shown)
**Result** 1.88[a]

**Query** Report log P, nothing else, for this compound: C#Cc1cnc2ccc(C3=NOC(C)(C(=O)N4CCOCC4)C3)cc2c1 (stereo not shown)
**Result** 2.18[a]

**Query** For the compound C#Cc1cnc2ccc(C3=NOC(C)(C(=O)NC4CC(F)(F)C4)C3)cc2c1 (stereo not shown) , give its reported log P.
**Result** 2.57[a]

**Query** Give reported log P value for CC1(C(=O)NCc2cncnc2)CC(c2ccc3ncc(Br)cc3c2)=NO1 (stereo not shown)
**Result** 1.95[a]

**Query** Answer with reported log P of COC1(C(=O)NC2CCN(C)CC2)CC(c2ccc3ncc(I)cc3c2)=NO1 (stereo not shown)
**Result** 1.67[a]

**Query** Annotate the compound COc1cncc(CNC(=O)C2(C)CC(c3ccc4ncc(Br)cc4c3)=NO2)n1 (stereo not shown) with its measured log P.
**Result** 2.53[a]

**Query** Give the reported value of log P for this record: C#Cc1cnc2ccc(C3=NOC(C)(C(=O)NCc4ccncc4C)C3)cc2c1 (stereo not shown)
**Result** 1.29[a]

Cited source: patent US9510598B2
